Measured pEC50 of individual entries
- TARGET UNDER TEST: Cannabinoid receptor 2 (Homo sapiens)
- Sequence (P34972 whole entry): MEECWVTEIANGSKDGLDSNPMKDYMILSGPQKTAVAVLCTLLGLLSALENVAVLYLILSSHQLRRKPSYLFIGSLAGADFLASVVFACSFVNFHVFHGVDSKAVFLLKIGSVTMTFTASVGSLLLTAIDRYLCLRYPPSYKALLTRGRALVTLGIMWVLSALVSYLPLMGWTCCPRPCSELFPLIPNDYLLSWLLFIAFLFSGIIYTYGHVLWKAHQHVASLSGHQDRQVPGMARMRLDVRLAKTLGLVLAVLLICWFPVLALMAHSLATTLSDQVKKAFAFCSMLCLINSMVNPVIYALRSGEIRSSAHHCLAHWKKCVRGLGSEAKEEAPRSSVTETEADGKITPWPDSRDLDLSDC
- PROTOCOL DESCRIPTION: cAMP Assay: CHO cells expressing human CB1 or CB2 receptors are seeded 17-24 hours prior to the experiment 50.000 cells per well in a black 96 well plate with flat clear bottom (Corning Costar #3904) in DMEM (Invitrogen No. 31331), 1×HT supplement, with 10% fetal calf serum and incubated at 5% CO2 and 37° C. in a humidified incubator. The growth medium was exchanged with Krebs Ringer Bicarbonate buffer with 1 mM IBMX and incubated at 30° C. for 30 min. Compounds were added to a final assay volume of 100 μl and incubated for 30 min at 30° C. Using the cAMP-Nano-TRF detection kit the assay (Roche Diagnostics) was stopped by the addition of 50 μl lysis reagent (Tris, NaCl, 1.5% Triton X100, 2.5% NP40, 10% NaN3) and 50 μl detection solutions (20 μM mAb Alexa700-cAMP 1:1, and 48 μM Ruthenium-2-AHA-cAMP) and shaken for 2 h at room temperature. The time-resolved energy transfer is measured by a TRF reader (Evotec Technologies GmbH), equipped with a ND:YAG laser as excitation source. The plate is measured twice with the excitation at 355 nm and at the emission with a delay of 100 ns and a gate of 100 ns, total exposure time 10 s at 730 (bandwidth 30 nm) or 645 nm (bandwidth 75 nm), respectively.
pEC50: −log10 of the molar value.
MEASURED METRIC: pEC50

| STRUCTURE AS SMILES | MEAS VALUE |
| --- | --- |
| Cn1nccc1-c1nc(C(C)(C)C)nc2c1nnn2CCC(F)(F)F | 6.88 |
| Cc1nonc1Cn1nnc2c(-c3ccc(F)nc3)nc(C(C)(C)C)nc21 | 6.19 |

====

- TARGET UNDER TEST: Cannabinoid receptor 1 (Homo sapiens)
- Sequence (P21554 whole entry): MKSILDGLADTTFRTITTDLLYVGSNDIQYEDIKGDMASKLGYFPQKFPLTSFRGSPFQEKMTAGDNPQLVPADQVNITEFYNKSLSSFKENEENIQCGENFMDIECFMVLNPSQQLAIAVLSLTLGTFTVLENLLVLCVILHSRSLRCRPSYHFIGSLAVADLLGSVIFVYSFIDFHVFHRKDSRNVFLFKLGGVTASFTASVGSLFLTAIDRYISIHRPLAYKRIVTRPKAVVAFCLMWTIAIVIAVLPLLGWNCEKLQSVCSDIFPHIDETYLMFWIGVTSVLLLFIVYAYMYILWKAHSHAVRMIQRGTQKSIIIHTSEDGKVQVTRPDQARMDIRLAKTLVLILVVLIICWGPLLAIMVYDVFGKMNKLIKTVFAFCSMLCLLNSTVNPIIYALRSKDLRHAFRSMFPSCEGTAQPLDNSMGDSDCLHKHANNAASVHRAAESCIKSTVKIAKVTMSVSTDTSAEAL
- PROTOCOL DESCRIPTION: cAMP Assay: CHO cells expressing human CB1 or CB2 receptors are seeded 17-24 hours prior to the experiment 50.000 cells per well in a black 96 well plate with flat clear bottom (Corning Costar #3904) in DMEM (Invitrogen No. 31331), 1×HT supplement, with 10% fetal calf serum and incubated at 5% CO2 and 37° C. in a humidified incubator. The growth medium was exchanged with Krebs Ringer Bicarbonate buffer with 1 mM IBMX and incubated at 30° C. for 30 min. Compounds were added to a final assay volume of 100 μl and incubated for 30 min at 30° C. Using the cAMP-Nano-TRF detection kit the assay (Roche Diagnostics) was stopped by the addition of 50 μl lysis reagent (Tris, NaCl, 1.5% Triton X100, 2.5% NP40, 10% NaN3) and 50 μl detection solutions (20 μM mAb Alexa700-cAMP 1:1, and 48 μM Ruthenium-2-AHA-cAMP) and shaken for 2 h at room temperature. The time-resolved energy transfer is measured by a TRF reader (Evotec Technologies GmbH), equipped with a ND:YAG laser as excitation source. The plate is measured twice with the excitation at 355 nm and at the emission with a delay of 100 ns and a gate of 100 ns, total exposure time 10 s at 730 (bandwidth 30 nm) or 645 nm (bandwidth 75 nm), respectively.
pEC50: −log10 of the molar value.

| STRUCTURE AS SMILES | pEC50 |
| --- | --- |
| Cc1nonc1Cn1nnc2c(-c3ccc(F)nc3)nc(C(C)(C)C)nc21 | < 5.00 |
| Cn1nccc1-c1nc(C(C)(C)C)nc2c1nnn2CCC(F)(F)F | < 5.00 |
